- method_notes: Inhibition of Enterovirus D68 US/KY/14-18953 2A protease expressed in Escherichia coli BL21(DE3) using Dabcyl-KIRIVNT/GPGEGGE-Edans as substrate incubated for 2 hrs by FRET assay
assay_readout: IC50 (nM)

Some entries whose results are on file:
| molecule | IC50, nM |
| --- | --- |
| CCC[C@H](NC(=O)[C@@H]1[C@H]2CCC[C@H]2CN1C(=O)[C@@H](NC(=O)CC12CC3CC(CC(O)(C3)C1)C2)C(C)(C)C)C(=O)C(=O)NC1CC1 | 400 |
| CC(C)(C)[C@H](NC(=O)CC12CC3CC(CC(C3)C1)C2)C(=O)N1C[C@@H]2CCC[C@@H]2[C@H]1C(=O)N[C@@H](CC1CC1)C(=O)C(=O)NC1CC1 | 140 |
| CC(C)(C)[C@H](NC(=O)NC12CC3CC(CC(C3)C1)C2)C(=O)N1C[C@@H]2CCC[C@@H]2[C@H]1C(=O)N[C@@H](Cc1ccc(F)cc1)C(=O)C(=O)NC1CC1 | 160 |
| CCC[C@H](NC(=O)[C@@H]1[C@H]2CCC[C@H]2CN1C(=O)[C@@H](NC(=O)NC12CC3CC(CC(C3)C1)C2)C(C)(C)C)C(=O)C(=O)NC1CC1 | 160 |
| CC(C)C[C@H](NC(=O)[C@@H]1[C@H]2CCC[C@H]2CN1C(=O)[C@@H](NC(=O)CC12CC3CC(CC(C3)C1)C2)C(C)(C)C)C(=O)C(=O)NC1CC1 | 260 |

A: CC(C)(C)[C@H](NC(=O)CC12CC3CC(CC(C3)C1)C2)C(=O)N1C[C@@H]2CCC[C@@H]2[C@H]1C(=O)N[C@H](C(=O)C(N)=O)C1CCCCC1
B: CCC[C@@H](C#N)NC(=O)[C@@H]1[C@H]2CCC[C@H]2CN1C(=O)[C@@H](NC(=O)CC12CC3CC(CC(C3)C1)C2)C(C)(C)C
C: CCC[C@H](NC(=O)[C@@H]1[C@H]2CCC[C@H]2CN1C(=O)[C@@H](NC(=O)[C@@H](NC(=O)OCc1ccccc1)C1CCCCC1)C(C)(C)C)C(=O)C(=O)NC1CC1
*Q* Order the items by recorded IC50; the first position goes to the largest value. Thanks in advance for listing the labels in the requested order.
*A* B, C, A
(B: 1320 nM, C: 360 nM, A: 190 nM)
